experimental.system: Norepinephrine transporter (Rattus norvegicus, UniProt Q9WTR4)
Sequence (Q9WTR4 whole entry): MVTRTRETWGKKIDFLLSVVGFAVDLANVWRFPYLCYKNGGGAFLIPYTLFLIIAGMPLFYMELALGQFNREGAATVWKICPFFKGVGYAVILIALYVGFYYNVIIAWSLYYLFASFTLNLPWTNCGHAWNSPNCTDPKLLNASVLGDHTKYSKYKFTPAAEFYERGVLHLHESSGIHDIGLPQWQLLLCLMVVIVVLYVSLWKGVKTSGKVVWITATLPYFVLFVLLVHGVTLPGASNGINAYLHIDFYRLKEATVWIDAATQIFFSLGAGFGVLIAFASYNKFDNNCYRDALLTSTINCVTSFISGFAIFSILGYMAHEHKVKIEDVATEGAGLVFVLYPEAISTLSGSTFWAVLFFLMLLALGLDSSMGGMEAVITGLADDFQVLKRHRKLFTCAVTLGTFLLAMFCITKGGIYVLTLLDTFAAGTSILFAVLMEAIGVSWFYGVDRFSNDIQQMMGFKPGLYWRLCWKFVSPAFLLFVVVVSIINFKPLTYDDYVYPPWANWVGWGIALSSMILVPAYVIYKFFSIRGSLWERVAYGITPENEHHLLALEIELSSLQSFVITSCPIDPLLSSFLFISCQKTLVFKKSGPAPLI
pIC50: −log10 of the molar value.
assay.readout: pIC50

Cc1ccc(C2C[C@H]3CCC([C@H]2c2nnc(C)o2)N3C)cc1 (some centres undefined)
6.60
CN1C2CC[C@@H]1CC(c1ccc(I)cc1)[C@@H]2c1cc(-c2ccccc2)no1 (some centres undefined)
6.06
CN1C2CC[C@@H]1CC(c1ccc(Cl)cc1)[C@@H]2c1nnc(-c2ccccc2)o1 (some centres undefined)
6.03
Cc1ccc(C2C[C@H]3CCC([C@H]2c2nn[nH]n2)N3C)cc1 (some centres undefined)
4.49
CN1C2CC[C@@H]1CC(c1ccc(Cl)cc1)[C@@H]2c1cc(-c2ccccc2)no1 (some centres undefined)
6.30
Cc1ccc(C2C[C@H]3CCC([C@@H]2c2nnc(-c4ccccc4)o2)N3C)cc1 (some centres undefined)
4.31
Cc1cc([C@H]2C(c3ccc(I)cc3)C[C@H]3CCC2N3C)on1 (some centres undefined)
7.17
Cc1ccc(C2C[C@H]3CCC([C@H]2c2cc(-c4ccccc4)no2)N3C)cc1 (some centres undefined)
6.40
CN1C2CCC1[C@@H](c1ncc(-c3ccccc3)o1)C(c1ccc(Cl)cc1)C2 (some centres undefined)
6.30

* * *

Please consider the recorded log10 of IC50 for Sodium-dependent dopamine transporter (Rattus norvegicus, UniProt P23977) in what follows.
assay.readout: log10 of IC50 (log10 of the value in nM)

Cc1ccc(C2C[C@H]3CCC([C@H]2c2nn[nH]n2)N3C)cc1 (some centres undefined)
3.19
Cc1ccc(C2C[C@H]3CCC([C@H]2C(=O)Oc2ccccc2)N3C)cc1 (some centres undefined)
0.51
Cc1ccc(C2C[C@H]3CCC([C@H]2c2cc(C)no2)N3C)cc1 (some centres undefined)
-0.03
CN1C2CCC1[C@@H](c1nc(-c3ccccc3)no1)C(c1ccc(Cl)cc1)C2 (some centres undefined)
0.21
CN1C2CC[C@@H]1CC(c1ccc(Cl)cc1)[C@@H]2C(=O)Oc1ccccc1 (some centres undefined)
0.30
Cc1cc([C@H]2C(c3ccc(I)cc3)C[C@H]3CCC2N3C)on1 (some centres undefined)
-0.14
CN1C2CC[C@@H]1CC(c1ccc(Cl)cc1)[C@@H]2c1nc2ccccc2s1 (some centres undefined)
0.14
Cc1ccc(C2C[C@H]3CCC([C@H]2c2nnc(C)o2)N3C)cc1 (some centres undefined)
0.65
CN1C2CC[C@@H]1CC(c1ccc(Cl)cc1)[C@@H]2c1ncc(-c2ccccc2)s1 (some centres undefined)
0.76

* * *

experimental.system: Sodium-dependent dopamine transporter (Rattus norvegicus)
Sequence (P23977 whole entry): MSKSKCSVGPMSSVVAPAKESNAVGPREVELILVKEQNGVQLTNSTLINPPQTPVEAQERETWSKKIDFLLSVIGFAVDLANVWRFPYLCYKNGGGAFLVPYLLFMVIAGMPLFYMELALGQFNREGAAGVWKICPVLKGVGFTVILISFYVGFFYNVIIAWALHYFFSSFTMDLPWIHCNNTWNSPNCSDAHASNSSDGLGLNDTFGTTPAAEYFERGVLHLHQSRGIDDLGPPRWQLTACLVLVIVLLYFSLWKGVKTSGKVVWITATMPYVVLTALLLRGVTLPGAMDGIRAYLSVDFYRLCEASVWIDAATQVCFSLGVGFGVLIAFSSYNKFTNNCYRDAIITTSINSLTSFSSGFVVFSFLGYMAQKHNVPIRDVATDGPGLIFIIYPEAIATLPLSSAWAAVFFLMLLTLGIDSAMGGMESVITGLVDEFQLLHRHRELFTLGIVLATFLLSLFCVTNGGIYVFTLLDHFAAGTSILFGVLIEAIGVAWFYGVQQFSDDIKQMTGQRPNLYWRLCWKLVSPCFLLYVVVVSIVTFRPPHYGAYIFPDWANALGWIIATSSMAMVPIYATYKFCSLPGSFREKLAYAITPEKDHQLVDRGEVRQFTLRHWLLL
pIC50: −log10 of the molar value.
Readings of pIC50 for the listed compounds
assay.readout: pIC50

Cc1ccc(C2C[C@H]3CCC([C@H]2c2nnc(-c4ccccc4)s2)N3C)cc1 (stereo not given in full)
7.44
Cc1ccc(C2C[C@H]3CCC([C@H]2c2nc(-c4ccccc4)no2)N3C)cc1 (stereo not given in full)
8.63
CN1C2CC[C@@H]1CC(c1ccc(Cl)cc1)[C@H]2c1nnc(-c2ccccc2)o1 (stereo not given in full)
5.96
CN1C2CC[C@@H]1CC(c1ccc(Cl)cc1)[C@@H]2C(=O)O (stereo not given in full)
5.68
Cc1ccc(C2C[C@H]3CCC([C@H]2c2cc(-c4ccccc4)no2)N3C)cc1 (stereo not given in full)
8.80
Cc1ccc(C2C[C@H]3CCC([C@H]2c2ncc(-c4ccccc4)o2)N3C)cc1 (stereo not given in full)
7.45
CN1C2CC[C@@H]1CC(c1ccc(Cl)cc1)[C@@H]2c1nnc(-c2ccccc2)o1 (stereo not given in full)
7.90
Cc1ccc(C2C[C@H]3CCC([C@H]2c2nnc(-c4ccccc4)o2)N3C)cc1 (stereo not given in full)
7.32
Cc1ccc(C2C[C@H]3CCC([C@@H]2c2nnc(-c4ccccc4)o2)N3C)cc1 (stereo not given in full)
6.28
CN1C2CC[C@@H]1CC(c1ccc(Cl)cc1)[C@@H]2c1cc(-c2ccccc2)no1 (stereo not given in full)
8.89
CN1C2CCC1[C@@H](c1nnc(-c3ccccc3)s1)C(c1ccc(Cl)cc1)C2 (stereo not given in full)
7.82
Cc1cc([C@H]2C(c3ccc(Cl)cc3)C[C@H]3CCC2N3C)on1 (stereo not given in full)
9.23
CN1C2CC[C@@H]1CC(c1ccc(I)cc1)[C@@H]2c1cc(-c2ccccc2)no1 (stereo not given in full)
8.59
CN1C2CCC1[C@@H](c1ncc(-c3ccccc3)o1)C(c1ccc(Cl)cc1)C2 (stereo not given in full)
7.71
CN1C2CC[C@@H]1CC(c1ccc(Cl)cc1)[C@H]2c1nc2ccccc2s1 (stereo not given in full)
6.73

* * *

Measured IC50 of individual entries
experimental.system: Norepinephrine transporter (Rattus norvegicus, UniProt Q9WTR4)
assay.readout: IC50 (µM)

Cc1cc([C@H]2C(c3ccc(Cl)cc3)C[C@H]3CCC2N3C)on1 (some centres undefined)
0.181
CN1C2CC[C@@H]1CC(c1ccc(Cl)cc1)[C@H]2c1nc2ccccc2s1 (some centres undefined)
59.5
CN1C2CC[C@@H]1CC(c1ccc(Cl)cc1)[C@@H]2c1nc2ccccc2s1 (some centres undefined)
0.403
Cc1ccc(C2C[C@H]3CCC([C@H]2c2cc(C)no2)N3C)cc1 (some centres undefined)
0.254
CN1C2CC[C@@H]1CC(c1ccc(Cl)cc1)[C@@H]2c1nnn[nH]1 (some centres undefined)
17.4
Cc1ccc(C2C[C@H]3CCC([C@H]2c2nnc(-c4ccccc4)s2)N3C)cc1 (some centres undefined)
24.3
CN1C2CC[C@@H]1CC(c1ccc(Cl)cc1)[C@@H]2c1ncc(-c2ccccc2)s1 (some centres undefined)
8.56
CN1C2CC[C@@H]1CC(c1ccc(Cl)cc1)[C@H]2c1nnc(-c2ccccc2)o1 (some centres undefined)
286
Cc1ccc(C2C[C@H]3CCC([C@H]2c2nnc(-c4ccccc4)o2)N3C)cc1 (some centres undefined)
1.31

* * *

Consider the following compounds and their measured pKi readings.
experimental.system: Sodium-dependent dopamine transporter (Rattus norvegicus)
assay.protocol: Ability to inhibit [3H]dopamine uptake into rat striatal synaptosomes
Assay type: subcellular, Brain
pKi: −log10 of the molar value.
assay.readout: pKi

CN1C2CC[C@@H]1CC(c1ccc(Cl)cc1)[C@@H]2c1cc(-c2ccccc2)no1 (some centres undefined)
8.68
CN1C2CCC1[C@@H](c1ncc(-c3ccccc3)o1)C(c1ccc(Cl)cc1)C2 (some centres undefined)
7.72
CN1C2CC[C@@H]1CC(c1ccc(Cl)cc1)[C@@H]2c1nnc(-c2ccccc2)o1 (some centres undefined)
7.73
CN1C2CCC1[C@@H](c1nc(-c3ccccc3)no1)C(c1ccc(Cl)cc1)C2 (some centres undefined)
9.23

* * *

This section presents molecules with their documented IC50 values.
experimental.system: Sodium-dependent serotonin transporter (Rattus norvegicus, UniProt P31652)
Sequence (P31652 whole entry): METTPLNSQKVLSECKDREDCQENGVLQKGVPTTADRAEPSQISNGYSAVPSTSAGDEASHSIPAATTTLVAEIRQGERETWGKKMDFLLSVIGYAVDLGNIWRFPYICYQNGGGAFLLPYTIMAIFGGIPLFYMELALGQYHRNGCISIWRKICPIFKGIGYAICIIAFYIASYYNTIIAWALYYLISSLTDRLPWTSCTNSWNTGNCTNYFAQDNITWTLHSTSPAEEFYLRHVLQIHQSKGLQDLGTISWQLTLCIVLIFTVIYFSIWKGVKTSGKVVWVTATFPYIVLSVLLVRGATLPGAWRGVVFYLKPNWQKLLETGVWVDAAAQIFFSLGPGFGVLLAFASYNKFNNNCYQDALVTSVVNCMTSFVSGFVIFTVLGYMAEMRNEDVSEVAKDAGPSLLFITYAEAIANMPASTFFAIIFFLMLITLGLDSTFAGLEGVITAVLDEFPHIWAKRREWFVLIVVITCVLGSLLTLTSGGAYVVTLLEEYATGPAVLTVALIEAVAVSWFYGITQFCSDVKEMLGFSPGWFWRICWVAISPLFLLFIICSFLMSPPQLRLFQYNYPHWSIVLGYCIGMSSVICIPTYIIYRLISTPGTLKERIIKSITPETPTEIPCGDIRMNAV
assay.protocol: Binding affinity against serotonin transporter using [3H]paroxetine in rat frontal cortex
Format: tissue-based
assay.readout: IC50

CN1C2CC[C@@H]1CC(c1ccc(Cl)cc1)[C@H]2c1nnc(-c2ccccc2)o1 (some centres undefined)
19.2 µM
Cc1cc([C@H]2C(c3ccc(Cl)cc3)C[C@H]3CCC2N3C)on1 (some centres undefined)
0.572 µM
CN1C2CC[C@@H]1CC(c1ccc(Cl)cc1)[C@@H]2c1nc2ccccc2s1 (some centres undefined)
1.12 µM
Cc1ccc(C2C[C@H]3CCC([C@H]2C(=O)Oc2ccccc2)N3C)cc1 (some centres undefined)
24.5 µM
Cc1ccc(C2C[C@H]3CCC([C@H]2c2nc(-c4ccccc4)no2)N3C)cc1 (some centres undefined)
1.07 µM
Cc1ccc(C2C[C@H]3CCC([C@H]2c2nnc(C)o2)N3C)cc1 (some centres undefined)
4.89 µM
CN1C2CC[C@@H]1CC(c1ccc(Cl)cc1)[C@@H]2c1ncc(-c2ccccc2)s1 (some centres undefined)
10.3 µM
CN1C2CC[C@@H]1CC(c1ccc(Cl)cc1)[C@@H]2C(=O)O (some centres undefined)
59.5 µM
CN1C2CC[C@@H]1CC(c1ccc(Cl)cc1)[C@@H]2c1cc(-c2ccccc2)no1 (some centres undefined)
2.42 µM
Cc1ccc(C2C[C@H]3CCC([C@H]2c2cc(C)no2)N3C)cc1 (some centres undefined)
3.82 µM
Cc1ccc(C2C[C@H]3CCC([C@H]2c2nnc(-c4ccccc4)o2)N3C)cc1 (some centres undefined)
23.3 µM
CN1C2CCC1[C@@H](c1nc(-c3ccccc3)no1)C(c1ccc(Cl)cc1)C2 (some centres undefined)
0.195 µM
Cc1ccc(C2C[C@H]3CCC([C@H]2c2cc(-c4ccccc4)no2)N3C)cc1 (some centres undefined)
5.11 µM
CN1C2CC[C@@H]1CC(c1ccc(I)cc1)[C@@H]2c1cc(-c2ccccc2)no1 (some centres undefined)
0.1 µM
Cc1ccc(C2C[C@H]3CCC([C@H]2c2nn[nH]n2)N3C)cc1 (some centres undefined)
43.6 µM
Cc1ccc(C2C[C@H]3CCC([C@@H]2c2nnc(-c4ccccc4)o2)N3C)cc1 (some centres undefined)
65 µM
Cc1noc([C@H]2C(c3ccc(Cl)cc3)C[C@H]3CCC2N3C)n1 (some centres undefined)
2.58 µM
Cc1ccc(C2C[C@H]3CCC([C@H]2c2ncc(-c4ccccc4)o2)N3C)cc1 (some centres undefined)
1.7 µM
CN1C2CC[C@@H]1CC(c1ccc(Cl)cc1)[C@@H]2c1nnn[nH]1 (some centres undefined)
5.46 µM

Values were extracted from ChEMBL document CHEMBL1129370.
